test system: Raji; experiment: Inhibition of 12-O-tetradecanoylphorbol-13-acetate induced EBV-early antigen activation in human Raji cells assessed as EA activation at 500 molar ratio after 48 hrs relative to TPA; assay type: cell-based; set-up: scale not given: the % may be the effect or the level left; settings: human gammaherpesvirus 4
Reported Activity by item:
Just the number please, in %, no unit attached.

These recorded examples may help you get a feel for the data.
1) CO[C@H]1O[C@H](C=C(C)C)C[C@H]1[C@@H]1CC[C@]2(C)C3=CC[C@H]4C(C)(C)[C@@H](O[C@@H]5O[C@H](CO[C@@H]6O[C@@H](C)[C@H](O)[C@@H](O)[C@H]6O)[C@@H](O)[C@H](O)[C@H]5O)CC[C@]4(C)[C@H]3CC[C@@]12C	53.6
2) CO[C@@H]1O[C@H](C=C(C)C)C[C@H]1[C@@H]1CC[C@]2(C)C3=CC[C@H]4C(C)(C)[C@@H](O[C@@H]5O[C@H](CO[C@@H]6O[C@@H](C)[C@H](O)[C@@H](O)[C@H]6O)[C@@H](O)[C@H](O)[C@H]5O)CC[C@]4(C)[C@H]3CC[C@@]12C	53.9

What does the record list as Activity for `CO[C@@H]1O[C@H](C=C(C)C)C[C@H]1[C@@H]1CC[C@]2(C)C3=CC[C@H]4C(C)(C)[C@@H](O[C@@H]5O[C@H](CO)[C@@H](O)[C@H](O)[C@H]5O[C@@H]5O[C@@H](C)[C@H](O)[C@@H](O)[C@H]5O)CC[C@]4(C)[C@H]3CC[C@@]12C` ?
54.4

What does the record list as Activity for `CO[C@H]1O[C@H](C=C(C)C)C[C@H]1[C@@H]1CC[C@]2(C)C3=CC[C@H]4C(C)(C)[C@@H](O[C@@H]5O[C@H](CO[C@@H]6O[C@@H](C)[C@H](O)[C@@H](O)[C@H]6O)[C@@H](O)[C@H](O)[C@H]5O[C@@H]5O[C@@H](C)[C@H](O)[C@@H](O)[C@H]5O)CC[C@]4(C)[C@H]3CC[C@@]12C` ?
60.5

---

test system: Raji; assay: Inhibition of 12-O-tetradecanoylphorbol-13-acetate induced EBV-early antigen activation in human Raji cells assessed as EA activation at 100 molar ratio after 48 hrs relative to TPA; assay type: cell-based; parameters: scale not given: the % may be the effect or the level left; settings: human gammaherpesvirus 4
assay.metric: Activity (%)
Just the number please, in %, no unit attached.

These recorded examples may help you get a feel for the data.
1. CO[C@@H]1O[C@H](C=C(C)C)C[C@H]1[C@@H]1CC[C@]2(C)C3=CC[C@H]4C(C)(C)[C@@H](O[C@@H]5O[C@H](CO)[C@@H](O)[C@H](O)[C@H]5O[C@@H]5O[C@@H](C)[C@H](O)[C@@H](O)[C@H]5O)CC[C@]4(C)[C@H]3CC[C@@]12C	83.7
2. CO[C@H]1O[C@H](C=C(C)C)C[C@H]1[C@@H]1CC[C@]2(C)C3=CC[C@H]4C(C)(C)[C@@H](O[C@@H]5O[C@H](CO[C@@H]6O[C@@H](C)[C@H](O)[C@@H](O)[C@H]6O)[C@@H](O)[C@H](O)[C@H]5O[C@@H]5O[C@@H](C)[C@H](O)[C@@H](O)[C@H]5O)CC[C@]4(C)[C@H]3CC[C@@]12C	82.6

Tell me reported Activity for `CO[C@@H]1O[C@H](C=C(C)C)C[C@H]1[C@@H]1CC[C@]2(C)C3=CC[C@H]4C(C)(C)[C@@H](O[C@@H]5O[C@H](CO[C@@H]6O[C@@H](C)[C@H](O)[C@@H](O)[C@H]6O)[C@@H](O)[C@H](O)[C@H]5O)CC[C@]4(C)[C@H]3CC[C@@]12C` , tested with Raji.
83.7

Tell me reported Activity for `CO[C@H]1O[C@H](C=C(C)C)C[C@H]1[C@@H]1CC[C@]2(C)C3=CC[C@H]4C(C)(C)[C@@H](O[C@@H]5O[C@H](CO[C@@H]6O[C@@H](C)[C@H](O)[C@@H](O)[C@H]6O)[C@@H](O)[C@H](O)[C@H]5O)CC[C@]4(C)[C@H]3CC[C@@]12C` , tested with Raji.
82.6
